experiment: CT900 plasma pharmacokinetics, noncompartmental analysis; type: in vivo, human; details: human, plasma, iv, 12 mg/m2, Cl, 12 mg/m^2 i.v., Cycle 1 Day 1; Median, N 5
parameterMeasured: clearance (mL/min)
Numbers only, in mL/min.

I would be grateful if you could share the reported clearance for "C#CCN(c1ccc(C(=O)N[C@@H](CCC(=O)N[C@H](CCC(=O)O)C(=O)O)C(=O)O)cc1)[C@H]1CCc2cc3nc(CO)[nH]c(=O)c3cc21" .
3.68

====

assay: CT900 plasma pharmacokinetics, noncompartmental analysis; format: in vivo, human; conditions: human, plasma, iv, 2 mg/m2, T max, 2 mg/m^2 i.v., Cycle 1 Day 1; Mean, N 4
parameterMeasured: Tmax (min)
One number for each entry, in min.

I would be grateful if you could share the reported Tmax for C#CCN(c1ccc(C(=O)N[C@@H](CCC(=O)N[C@H](CCC(=O)O)C(=O)O)C(=O)O)cc1)[C@H]1CCc2cc3nc(CO)[nH]c(=O)c3cc21 [CT900] .
54
